Each entry below carries its recorded MTD.
# assay-comment: Maximum tolerated dose (no deaths in three animals)
# Type: in vivo
# test-context: mouse, in vivo; other tubulin-binding agents; read-out: MTD (mg/kg body weight)
I'd appreciate it if you wrote the number followed by its unit.

COc1cc2c(c(OC)c1OC)-c1ccc(OC)c(=O)cc1[C@@H](NC(C)=O)CC2 [Colchicine, reference compound]
5 mg/kg

Continue with the compound presented below.
(Q) Bench note: what MTD did CC(=O)O[C@@]12CO[C@@H]1C[C@H](O)[C@@]1(C)C(=O)[C@H](O)C3=C(C)[C@@H](OC(=O)[C@H](O)[C@@H](NC(=O)OC(C)(C)C)c4ccccc4)C[C@@](O)([C@@H](OC(=O)c4ccccc4)[C@H]21)C3(C)C [Docetaxel, reference compound] show?
(A) 30 mg/kg
